All figures here come from PubChem BioAssay AID1745844.

Tested on: rodent lifetime carcinogenesis bioassay, tumor incidence TD50
MEASUREMENT_DESCRIPTION: carcinogenic potency in animals, long-term in vivo studies, CPDB compilation (AID 1745844)
CONDITIONS: mouse; strain NMRI; males; inhaled; site: kidney; lesion: cystadenocarcinoma; dosed 52 weeks; study length 92 weeks

{"columns": ["RECORD_SMILES", "TD50"],
 "data": [
  ["ClC#CCl", "3.89 mg/kg/day"]
]}

###

System: rodent lifetime carcinogenesis bioassay, tumor incidence TD50
MEASUREMENT_DESCRIPTION: carcinogenic potency in animals, long-term in vivo studies, CPDB compilation (AID 1745844)
CONDITIONS: rat; strain Fischer 344; males; in feed; site: Zymbal's gland; lesion: adenoma; dosed 104 weeks; study length 105 weeks

{"columns": ["RECORD_SMILES", "TD50 (mg/kg/day)"],
 "data": [
  ["OCC(CO)(CBr)CBr", 1950]
]}

###

Tested on: rodent lifetime carcinogenesis bioassay, tumor incidence TD50
MEASUREMENT_DESCRIPTION: carcinogenic potency in animals, long-term in vivo studies, CPDB compilation (AID 1745844)
CONDITIONS: mouse; strain B6C3F1; females; in feed; site: lung; lesion: alveolar/bronchiolar adenoma + alveolar/bronchiolar carcinoma; dosed 53 weeks; study length 92 weeks
EXPERIMENTAL_READOUT: TD50 (mg/kg/day)

{"columns": ["RECORD_SMILES", "EXPERIMENTAL_READOUT", "NUMERIC_READOUT"],
 "data": [
  ["O=Nc1ccc(Nc2ccccc2)cc1", "TD50", 5410]
]}

###

Test system: rodent lifetime carcinogenesis bioassay, tumor incidence TD50
MEASUREMENT_DESCRIPTION: carcinogenic potency in animals, long-term in vivo studies, CPDB compilation (AID 1745844)
CONDITIONS: rat; strain Sprague-Dawley; males; i.p.; site: any site (literature study); lesion: several types; types named in the paper; dosed 26 weeks; study length 61 weeks
EXPERIMENTAL_READOUT: TD50 (mg/kg/day)

{"columns": ["RECORD_SMILES", "UNITS_TEXT", "NUMERIC_READOUT"],
 "data": [
  ["CNNCc1ccc(C(=O)NC(C)C)cc1", "mg/kg/day", 0.186]
]}

###

System: rodent lifetime carcinogenesis bioassay, tumor incidence TD50
MEASUREMENT_DESCRIPTION: carcinogenic potency in animals, long-term in vivo studies, CPDB compilation (AID 1745844)
CONDITIONS: mouse; strain B6C3F1; males; in feed; site: liver; lesion: hepatocellular adenoma; dosed 107 weeks; study length 107 weeks
EXPERIMENTAL_READOUT: TD50

{"columns": ["RECORD_SMILES", "EXPERIMENTAL_READOUT", "RESULT"],
 "data": [
  ["CN(C)c1ccc(C(=C2C=CC(=[N+](C)C)C=C2)c2ccc(N(C)C)cc2)cc1", "TD50", "139 mg/kg/day"]
]}

###

Tested on: rodent lifetime carcinogenesis bioassay, tumor incidence TD50
MEASUREMENT_DESCRIPTION: carcinogenic potency in animals, long-term in vivo studies, CPDB compilation (AID 1745844)
CONDITIONS: hamster; strain Syrian Golden; females; in drinking water; site: heart; lesion: angiosarcoma; dosed 67 weeks; study length 67 weeks

{"columns": ["RECORD_SMILES", "TD50"],
 "data": [
  ["CNNC", "2.13 mg/kg/day"]
]}
